Entries and their measured TGI follow.
system: SF-295 CNS; assay: NCI tumour cell line growth inhibition, 48 h
observable: TGI

INSERT INTO assay_data (molecule, observable, observedresult) VALUES
  ('Cc1cc(-c2nc3ccc(O)cc3s2)ccc1N', 'TGI', '> 100 µM'),
  ('COC(=O)[C@H]1ON2O[C@@H](O[C@H]3CCCC[C@@H]3C(C)(C)c3ccccc3)C[C@@H]3CC[C@H]1[C@@]32C', 'TGI', '> 100 µM'),
  ('Cc1cc2c(c(C#N)c1C)NC(=O)C(CC(=O)O)C2=O (centres undefined)', 'TGI', '> 100 µM'),
  ('CCC(C)/C=C(C)/C=C/C(=O)c1c(O)c(-c2ccc(O)cc2)c[nH]c1=O (centres undefined)', 'TGI', '13.7 µM'),
  ('CSCCCNC(=O)c1csc([C@@H](CSC)NC(=O)CCNC(=O)[C@@H](NC(=O)OCC(Br)(Br)Br)C(C)O)n1 (some centres undefined)', 'TGI', '> 100 µM'),
  ('O=C1C(Cl)=C(N2CCOCC2)C(=O)c2ccccc21', 'TGI', '36.7 µM'),
  ('COc1ccc(CN=C2Nc3ccncc3S(=O)(=O)N2c2ccccc2)cc1', 'TGI', '> 100 µM'),
  ('COC1CC(OS(=O)(=O)c2ccc(C)cc2)C(OS(=O)(=O)c2ccc(C)cc2)C(COS(=O)(=O)c2ccc(C)cc2)O1 (centres undefined)', 'TGI', '4.38 µM'),
  ('C/C=C/OC1C(C2COC(C)(C)O2)OC2OC(C)(C)OC21 (centres undefined)', 'TGI', '> 100 µM'),
  ('C=CCN1C(=O)/C(=C/c2cccs2)N=C1SC1OC(COC(=O)c2ccccc2)C(OC(=O)c2ccccc2)C1OC(=O)c1ccccc1 (centres undefined)', 'TGI', '> 100 µM'),
  ('Cc1cc2c(C(N)=O)cccc2n1-c1nc2c(c(NCc3ccccc3)n1)CCCN2', 'TGI', '0.352 µM'),
  ('Clc1cc(Cl)cc(N2N=C(c3cccc(Nc4ccncc4)c3)CC2c2ccc(Br)cc2)c1 (centres undefined)', 'TGI', '3.2 µM'),
  ('CCOC(=O)c1c(NC(=O)c2ccccc2)sc2c1CCC2', 'TGI', '> 100 µM'),
  ('CNC(=O)CNC(=O)CCC(=O)N(C)C', 'TGI', '> 100 µM'),
  ('O=C(COC(=O)c1ccccc1)c1ccc(Br)cc1', 'TGI', '32 µM'),
  ('O=S(=O)(NC(c1ccccc1)(c1cc2ccccc2[nH]1)c1cc2ccccc2n1S(=O)(=O)c1ccccc1)c1ccccc1 (centres undefined)', 'TGI', '> 100 µM'),
  ('CC(C)(C)C(=O)C(c1ccc(-c2cscn2)cc1)c1ccc(-c2cscn2)cc1', 'TGI', '84.5 µM'),
  ('O=C(/C=C/c1ccc(Cl)c(Cl)c1)CCN1CCN(CCC(=O)/C=C/c2ccc(Cl)c(Cl)c2)CC1', 'TGI', '46.5 µM'),
  ('CNC1NC(=O)c2ccccc2N1Cc1ccc(F)cc1 (centres undefined)', 'TGI', '> 100 µM'),
  ('O=C(CNC(=O)c1cccc2ccccc12)Nc1ccccc1Oc1ccccc1', 'TGI', '> 10 µM'),
  ('CCOC(=O)NNC1(SC)NC(=O)c2c(cc(Cl)oc2=O)O1 (centres undefined)', 'TGI', '25.9 µM'),
  ('COc1ccc(C2c3cc4c(cc3OC(N3CCOCC3)C2C)OCO4)c(OC)c1 (centres undefined)', 'TGI', '16.3 µM'),
  ('O=S(=O)(O)c1ccc(N=Nc2ccc(N=Nc3ccc(/C=C/c4ccc(N=[N+]([O-])c5ccc(/C=C/c6ccc(N=Nc7ccc(N=Nc8ccc(S(=O)(=O)O)cc8)c8ccccc78)cc6S(=O)(=O)O)c(S(=O)(=O)O)c5)cc4S(=O)(=O)O)c(S(=O)(=O)O)c3)c3ccccc23)cc1', 'TGI', '> 100 µM'),
  ('Cc1cccc(C)c1NC(=O)C(=O)CC(=O)CO', 'TGI', '> 100 µM'),
  ('CC(=S)NNC(=O)c1ccncc1', 'TGI', '> 100 µM'),
  ('CC1(C)N=C(N)N=C(N)N1c1ccc(CCCCc2ccc(Cl)cc2Cl)cc1', 'TGI', '22 µM'),
  ('CC(C)(N=NC(C)(C)C1=NCCN1)C1=NCCN1', 'TGI', '> 100 µM'),
  ('O=C(c1ccc(Cl)cc1)N(C(=S)N1CCN(c2ccccc2)CC1)c1ccccc1', 'TGI', '> 100 µM'),
  ('COC(=O)CC1(O)C(C=C(C)C)C(C(=O)OC)C(=O)C(C(=O)OC)C1C(=O)OC (centres undefined)', 'TGI', '> 100 µM'),
  ('C#CCSc1cnc2ccccc2c1Sc1c[nH]c2ccccc2c1=O', 'TGI', '> 100 µM'),
  ('CC1(C)OC2CN(C(=O)OCc3ccccc3)C(CO)C2O1 (centres undefined)', 'TGI', '> 100 µM'),
  ('COc1cccc2c1C(=O)c1ccc3cc(CO)cc(O)c3c1C2=O', 'TGI', '7.44 µM'),
  ('CC(=O)OC[C@@H]1[C@H]2CC(=O)O[C@H]2C[C@H]1OC(C)=O', 'TGI', '> 100 µM'),
  ('Cc1ccnc2c1c(=O)c1ccccc1n2C', 'TGI', '> 100 µM'),
  ('CCOC(=O)NC(=O)c1cn(CCCOC(=O)CCCCCCCCC(=O)OCCCn2cc(C(=O)NC(=O)OCC)c(=O)[nH]c2=O)c(=O)[nH]c1=O', 'TGI', '50.2 µM'),
  ('CCN(CC)C(=S)N/N=C(\C)c1ccccc1O', 'TGI', '> 100 µM'),
  ('CC1(C)SC2C(NC(=O)Cc3ccccc3)C(=O)N2C1C(=O)O (centres undefined)', 'TGI', '> 100 µM'),
  ('CCOC(=O)C1(Cc2ccccc2)CCN(C(=O)c2ccccc2)C2C1C2(Cl)Cl (centres undefined)', 'TGI', '77.2 µM'),
  ('CC(=O)O/C(=C(/C#N)C(=O)O)C1C(C(=O)O)C(c2ccccc2[N+](=O)[O-])C=C(c2ccco2)N1c1ccncc1 (centres undefined)', 'TGI', '19.2 µM');
